Source of measurements: the RNAGym collection of RNA variant scans (doi:10.7554/elife.80360)

B1: HDV Ribozyme (parent)
chain: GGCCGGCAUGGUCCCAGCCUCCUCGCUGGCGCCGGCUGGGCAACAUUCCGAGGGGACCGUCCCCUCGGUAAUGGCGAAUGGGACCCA

Variants of: B1
test_details: self-cleavage, relative activity (ratio to wild type); higher = more cleavage; co-transcriptional
Field: self-cleavage. Provide a value for each of the variants that follow.
Please give only the number in your answer, with no unit.

I would be grateful if you could share the reported self-cleavage for C15U C24U .
0.717

I would be grateful if you could share the reported self-cleavage for C33G U72C .
0.115

I would be grateful if you could share the reported self-cleavage for C30U C33G .
0.266

I would be grateful if you could share the reported self-cleavage for C19U C21U .
0.0378

I would be grateful if you could share the reported self-cleavage for A43G G55C .
0.743

I would be grateful if you could share the reported self-cleavage for G55C C85U .
0.923

I would be grateful if you could share the reported self-cleavage for G34C C48A .
0.161

I would be grateful if you could share the reported self-cleavage for C30A G59C .
0.58

I would be grateful if you could share the reported self-cleavage for A16U U23C .
0.831

I would be grateful if you could share the reported self-cleavage for U20C C85G .
0.0519

I would be grateful if you could share the reported self-cleavage for C49A A51C .
0.297

I would be grateful if you could share the reported self-cleavage for G25C U72G .
0.0639

I would be grateful if you could share the reported self-cleavage for U9G G55A .
0.962

I would be grateful if you could share the reported self-cleavage for U47G G52A .
0.978

I would be grateful if you could share the reported self-cleavage for C32A G59C .
0.271

I would be grateful if you could share the reported self-cleavage for C14U U47A .
0.906

I would be grateful if you could share the reported self-cleavage for C18G C75U .
0.0615

I would be grateful if you could share the reported self-cleavage for G2A G34A .
0.0536

I would be grateful if you could share the reported self-cleavage for U47C G50U .
0.733

I would be grateful if you could share the reported self-cleavage for C15U G17U .
0.415

I would be grateful if you could share the reported self-cleavage for U47A C75U .
0.203

I would be grateful if you could share the reported self-cleavage for U9A C62U .
1.06

I would be grateful if you could share the reported self-cleavage for C85U C86A .
0.923

I would be grateful if you could share the reported self-cleavage for G2A G74C .
0.0811

I would be grateful if you could share the reported self-cleavage for G17U U27C .
0.308

I would be grateful if you could share the reported self-cleavage for C4G A43U .
0.0415

I would be grateful if you could share the reported self-cleavage for G10A C36G .
0.101

I would be grateful if you could share the reported self-cleavage for C14A G82U .
0.665

I would be grateful if you could share the reported self-cleavage for C4A U69A .
0.185

I would be grateful if you could share the reported self-cleavage for C75G G81A .
0.0332

I would be grateful if you could share the reported self-cleavage for U20C C62A .
0

I would be grateful if you could share the reported self-cleavage for G6U G29U .
0.104

I would be grateful if you could share the reported self-cleavage for G11C G53A .
0.344

I would be grateful if you could share the reported self-cleavage for G2A C32U .
0.194

I would be grateful if you could share the reported self-cleavage for U60G U69G .
0.755

I would be grateful if you could share the reported self-cleavage for G10U A71U .
0.639

I would be grateful if you could share the reported self-cleavage for G6A U20G .
0.262

I would be grateful if you could share the reported self-cleavage for A51U G76A .
0.961

I would be grateful if you could share the reported self-cleavage for G34U G81A .
0.166

I would be grateful if you could share the reported self-cleavage for G2U G11A .
0.0304

I would be grateful if you could share the reported self-cleavage for G5U G17U .
0.18

I would be grateful if you could share the reported self-cleavage for C30G C36G .
0.0594

I would be grateful if you could share the reported self-cleavage for G1A C18G .
0

I would be grateful if you could share the reported self-cleavage for G38U G59C .
0.264

I would be grateful if you could share the reported self-cleavage for G31U C48U .
0.619

I would be grateful if you could share the reported self-cleavage for G34A C62U .
0.106

I would be grateful if you could share the reported self-cleavage for G25A G50U .
0.242

I would be grateful if you could share the reported self-cleavage for G31C U60C .
0.525

I would be grateful if you could share the reported self-cleavage for G17A G54C .
0.458

I would be grateful if you could share the reported self-cleavage for C84A A87U .
1.02

I would be grateful if you could share the reported self-cleavage for C21U A51C .
0.332

I would be grateful if you could share the reported self-cleavage for C13G G80A .
0

I would be grateful if you could share the reported self-cleavage for C3G G67U .
0.626

I would be grateful if you could share the reported self-cleavage for G38U C84A .
0.174

I would be grateful if you could share the reported self-cleavage for G39U G81A .
0.228

I would be grateful if you could share the reported self-cleavage for G67C G76U .
1.11

I would be grateful if you could share the reported self-cleavage for A42U G82A .
0.157

I would be grateful if you could share the reported self-cleavage for U65G A70G .
1.05

I would be grateful if you could share the reported self-cleavage for C36A A42C .
0.0583

I would be grateful if you could share the reported self-cleavage for U60C U65A .
1.27

I would be grateful if you could share the reported self-cleavage for U37A C61U .
0.277

I would be grateful if you could share the reported self-cleavage for A43C A71U .
0.322

I would be grateful if you could share the reported self-cleavage for C44G U79G .
0.196

I would be grateful if you could share the reported self-cleavage for C84G C85A .
0.928

I would be grateful if you could share the reported self-cleavage for C3U C61G .
0.816

I would be grateful if you could share the reported self-cleavage for G6C G73U .
0.0923

I would be grateful if you could share the reported self-cleavage for G1U G35A .
0.192

I would be grateful if you could share the reported self-cleavage for U9G C33U .
0.87

I would be grateful if you could share the reported self-cleavage for C3A G55C .
0.642

I would be grateful if you could share the reported self-cleavage for G6A G10A .
0.372

I would be grateful if you could share the reported self-cleavage for C62A G68C .
0.883

I would be grateful if you could share the reported self-cleavage for G76U A83G .
0.787

I would be grateful if you could share the reported self-cleavage for G53C C63U .
0.997

I would be grateful if you could share the reported self-cleavage for G55U A71C .
0.725

I would be grateful if you could share the reported self-cleavage for A56U A78U .
0.0573

I would be grateful if you could share the reported self-cleavage for G10A U20C .
0.0234

I would be grateful if you could share the reported self-cleavage for G73C G76A .
0.604

I would be grateful if you could share the reported self-cleavage for C19G C44G .
0.0959

I would be grateful if you could share the reported self-cleavage for G25A G67C .
0.277

I would be grateful if you could share the reported self-cleavage for G35C C75A .
0.225

I would be grateful if you could share the reported self-cleavage for G5U C84G .
0.262

I would be grateful if you could share the reported self-cleavage for C32A C48G .
0.0462

I would be grateful if you could share the reported self-cleavage for G54A G82U .
0.205

I would be grateful if you could share the reported self-cleavage for C3U U69C .
0.616

I would be grateful if you could share the reported self-cleavage for G40A A70U .
0.868
